tested on: MDA-MB-468 breast; experiment: NCI tumour cell line growth inhibition, 48 h
The compounds listed here are annotated with their TGI.
I only need the number, in µM, no unit after it.

chem-smiles | TGI / µM
O=C(N/N=C/c1ccccc1O)c1ccccc1Nc1ccnc(C(F)(F)F)c1 | 9.14

Query: May I ask what TGI has been recorded for N#Cc1c(-c2ccc(F)cc2)nc(N/N=C/c2c[nH]c3ccccc23)nc1N1CCOCC1 ?
Reply: 22.7

* * *

test system: MDA-MB-468 breast; test: NCI tumour cell line growth inhibition, 48 h; in the data active = GI50 below about 0.43 µM; inactive = the rest
Would you mind answering with one of these outcomes? TRUE (active), FALSE (inactive)

chem-smiles | target-or-system | class-label
C=CC(=O)N1CC2(CCN(c3nc(OC4CCN(CCCOC)CC4)nc4c(OCC(F)(F)F)c(-c5c(C)ccc6[nH]ncc56)c(C5CC5)cc34)CC2)C1 | MDA-MB-468 breast | FALSE
Oc1ccc(NCc2nc3ccccc3[nH]2)cc1 | MDA-MB-468 breast | FALSE
Oc1ccc(CN2CCC(N3CCCCC3)CC2)c2cccnc12 | MDA-MB-468 breast | FALSE

Query: Test call for this molecule, please: CC(=O)OC[C@]1(C)C=C2C(=O)[C@](C)(O)C3(CC3)C(C)=C2[C@H]1O
Reply: TRUE

Query: Test call, this molecule: CCCn1cnc2c(SCc3ccccc3Cl)nc(N)nc21
Reply: FALSE

Query: I'd appreciate the recorded outcome for FC(F)(F)c1cccc(Nc2nccc(-c3cnn4nc(-c5ccccc5)ccc34)n2)c1 from this test.
Reply: FALSE

Query: Write down the call the test reported for this molecule. Item: Oc1c(CN2CCC(N3CCCCC3)CC2)cc(Cc2cc(CN3CCC(N4CCCCC4)CC3)c(O)c3ncccc23)c2cccnc12
Reply: FALSE

Query: Per the records of this test, what outcome belongs to N#CSc1c[nH]c2cccc(/C=C/C(=O)/C=C(/C=C/c3cccc4[nH]cc(SC#N)c34)OB(F)F)c12 ?
Reply: TRUE
